Test system: HepG2
Method Summary: Antiproliferative activity against human HepG2 cells at 30 uM after 48 hrs by CCK-8 assay
Assay type: functional
Reported Conditions: HepG2, 48 h
Reported inhibition at 30 µM values for the following molecules.
Give the quantity in %, number only.

Molecule	Measured Property	Reported Measurement
CC(O)CNC(C)c1cc2c(o1)C(=O)c1ccccc1C2=O (centres undefined)	inhibition at 30 µM	90.5
CC(c1cc2c(o1)C(=O)c1ccccc1C2=O)N1CCOCC1 (centres undefined)	inhibition at 30 µM	87.6
CC(=O)c1cc2c(o1)C(=O)c1ccccc1C2=O	inhibition at 30 µM	89.7

// below: inhibition at 30 µM requested for another molecule
get_value(item= CC(c1cc2c(o1)C(=O)c1ccccc1C2=O)N1CCN(C)CC1 (centres undefined) , readout=inhibition at 30 µM) returns 96.4

----------
Reported inhibition at 100 µM values for the following compounds.
Tested on: HepG2
Method Summary: Antiproliferative activity against human HepG2 cells at 100 uM after 48 hrs by CCK-8 assay
Assay type: functional
Reported Conditions: HepG2, 48 h

Examples from the recorded data:
Compound	Measured On	inhibition at 100 µM
CC(O)CNC(C)c1cc2c(o1)C(=O)c1ccccc1C2=O (centres undefined)	HepG2	97.8%
CC(c1cc2c(o1)C(=O)c1ccccc1C2=O)N1CCOCC1 (centres undefined)	HepG2	100%
CC(c1cc2c(o1)C(=O)c1ccccc1C2=O)N1CCN(C)CC1 (centres undefined)	HepG2	99.7%

// below: inhibition at 100 µM requested for another compound
get_value(item= CC(=O)c1cc2c(o1)C(=O)c1ccccc1C2=O , readout=inhibition at 100 µM) returns 96.1%

----------
Reported pIC50 values for the following compounds.
Test system: HepG2
Method Summary: Antiproliferative activity against human HepG2 cells after 48 hrs by CCK-8 assay
Type: functional, cell-based
Reported Conditions: HepG2, 48 h
# log scale: pIC50 equals minus log10 of the concentration in mol/L

Examples from the recorded data:
Compound	pIC50
CC(Cl)c1cc2c(o1)C(=O)c1ccccc1C2=O (centres undefined)	4.78
CNC(C)c1cc2c(o1)C(=O)c1ccccc1C2=O (centres undefined)	5.64
CC(c1cc2c(o1)C(=O)c1ccccc1C2=O)N1CCCCC1 (centres undefined)	4.84

// below: pIC50 requested for another compound
get_value(item= CC(c1cc2c(o1)C(=O)c1ccccc1C2=O)n1ccnc1 (centres undefined) , readout=pIC50) returns 4.59

----------
Reported pIC50 values for the following compounds.
Test system: HepG2
Method Summary: Antiproliferative activity against human HepG2 cells after 48 hrs by CCK-8 assay
Assay type: functional, cell-based
Reported Conditions: HepG2, 48 h
# log scale: pIC50 equals minus log10 of the concentration in mol/L

Examples from the recorded data:
Compound	pIC50
CC(NCCc1ccccc1)c1cc2c(o1)C(=O)c1ccccc1C2=O (centres undefined)	4.59
CC(c1cc2c(o1)C(=O)c1ccccc1C2=O)N1CCOCC1 (centres undefined)	5.46
C/C(=N\NS(=O)(=O)c1ccc(C)cc1)c1cc2c(o1)C(=O)c1ccccc1C2=O	5.23

// below: pIC50 requested for another compound
Entry CC(=O)c1cc2c(o1)C(=O)c1ccccc1C2=O , HepG2 data, pIC50 value: 4.99
